SST5/2 Selectivity values for the compounds below.
target: SST5 (Homo sapiens, UniProt P35346); experiment: Hit Hunter cAMP XS+ assay, SST5 activation via Gi (reduction of forskolin-stimulated cAMP); assay type: cell-based; details: selectivity for SST5 over SST2
Sequence (P35346 whole entry): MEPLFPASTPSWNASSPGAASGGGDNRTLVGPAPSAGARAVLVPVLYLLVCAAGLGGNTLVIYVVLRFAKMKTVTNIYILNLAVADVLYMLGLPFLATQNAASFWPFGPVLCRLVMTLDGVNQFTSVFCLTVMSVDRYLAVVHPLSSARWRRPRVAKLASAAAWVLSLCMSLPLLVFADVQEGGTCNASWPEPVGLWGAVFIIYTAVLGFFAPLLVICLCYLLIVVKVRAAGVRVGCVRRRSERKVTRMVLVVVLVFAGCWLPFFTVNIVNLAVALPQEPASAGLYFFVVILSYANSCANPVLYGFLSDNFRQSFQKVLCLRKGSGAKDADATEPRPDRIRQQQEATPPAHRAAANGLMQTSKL
*1 amine or outer side, *2 acyl side, *3 side chain or, on linkers, in order; H or OH if unused. Where a SMILES comes first, the peptide text is derived from it. Side-chain parts run from the residue outwards. [ ]: non-standard residue; d: D form. The star is where a group is joined. Ala(piperidin-4-yl) = O=C([C@H](CC1CCN([*:3])CC1)N[*:1])[*:2]; dTrp(4-Me) = Cc1cccc2[nH]cc(C[C@@H](N)C(=O)O)c12; Ala(piperazin-1-yl) = N[C@@H](CN1CCNCC1)C(=O)O; Phe(3-Cl) = N[C@@H](Cc1cccc(Cl)c1)C(=O)O; Phe(4-Cl) = N[C@@H](Cc1ccc(Cl)cc1)C(=O)O; Ethylenediamine = C(CN[*:2])N[*:1]; Hyp = O=C(O)[C@@H]1C[C@@H](O)CN1; hPhe = N[C@@H](CCc1ccccc1)C(=O)O; 3Pal = N[C@@H](Cc1cccnc1)C(=O)O; Benzyl(4-Cl) = Clc1ccc(C*)cc1; Phg = N[C@H](C(=O)O)c1ccccc1; X6 = Clc1cccc(Cl)c1C*; CO = O=C([*:1])[*:2]; Bn = c1ccc(C*)cc1
Form rule: numeric answer, no unit written next to it.

- Compound: "NCCNC(=O)O[C@@H]1C[C@H]2C(=O)N[C@@H](CCc3ccccc3)C(=O)N[C@@H](Cc3c[nH]c4ccccc34)C(=O)N[C@@H](CN3CCNCC3)C(=O)N[C@@H](Cc3ccc(OCc4ccccc4)cc3)C(=O)N[C@@H](Cc3cccnc3)C(=O)N2C1 [Example 34] (cyclo([3Pal][Hyp]([CO-Ethylenediamine])[hPhe]W[Ala(piperazin-1-yl)]Y(Bn)))"
  Study system: "SST5 (Homo sapiens, UniProt P35346)"
  SST5/2 Selectivity: 3271.8

Q: Fill in: SST5/2 Selectivity of NCCNC(=O)O[C@@H]1C[C@H]2C(=O)N[C@@H](c3ccccc3)C(=O)N[C@H](Cc3c[nH]c4ccccc34)C(=O)N[C@@H](CC3CCNCC3)C(=O)N[C@@H](Cc3ccc(OCc4ccccc4)cc3)C(=O)N[C@@H](Cc3cccc(Cl)c3)C(=O)N2C1 [Example 7] (cyclo([Hyp]([CO-Ethylenediamine])[Phg][dW][Ala(piperidin-4-yl)]Y(Bn)[Phe(3-Cl)])) is ___
Result: 19.3

Q: Check NCCNC(=O)O[C@@H]1C[C@H]2C(=O)N[C@@H](CCc3ccccc3)C(=O)N[C@H](Cc3c[nH]c4ccccc34)C(=O)N[C@@H](CC3CCNCC3)C(=O)N[C@@H](Cc3ccc(OCc4c(Cl)cccc4Cl)cc3)C(=O)N[C@@H](Cc3cccnc3)C(=O)N2C1 [Example 47] (cyclo([3Pal][Hyp]([CO-Ethylenediamine])[hPhe][dW][Ala(piperidin-4-yl)]Y(X6))) too.
Result: 226.4

Q: Check NCCNC(=O)O[C@@H]1C[C@H]2C(=O)N[C@@H](CCc3ccccc3)C(=O)N[C@H](Cc3c[nH]c4ccccc34)C(=O)N[C@@H](CC3CCNCC3)C(=O)N[C@@H](Cc3ccc(OCc4ccccc4)cc3)C(=O)N[C@@H](Cc3ccc(Cl)cc3)C(=O)N2C1 [Example 42] (cyclo([Hyp]([CO-Ethylenediamine])[hPhe][dW][Ala(piperidin-4-yl)]Y(Bn)[Phe(4-Cl)])) too.
Result: 45.1

Q: Check Cc1cccc2[nH]cc(C[C@H]3NC(=O)[C@H](c4ccccc4)NC(=O)[C@@H]4C[C@@H](OC(=O)NCCN)CN4C(=O)[C@H](Cc4ccccc4)NC(=O)[C@H](Cc4ccc(OCc5ccccc5)cc4)NC(=O)[C@H](CC4CCNCC4)NC3=O)c12 [Example 4] (cyclo(F[Hyp]([CO-Ethylenediamine])[Phg][dTrp(4-Me)][Ala(piperidin-4-yl)]Y(Bn))) too.
Result: 23.6

Q: Check NCCNC(=O)O[C@@H]1C[C@H]2C(=O)N[C@@H](c3ccccc3)C(=O)N[C@H](Cc3c[nH]c4ccccc34)C(=O)N[C@@H](CC3CCNCC3)C(=O)N[C@@H](Cc3ccc(OCc4ccc(Cl)cc4)cc3)C(=O)N[C@@H](Cc3ccccc3)C(=O)N2C1 [Example 6] (cyclo(F[Hyp]([CO-Ethylenediamine])[Phg][dW][Ala(piperidin-4-yl)]Y(Benzyl(4-Cl)))) too.
Result: 41.9
